Assay: TOX21_p53_BLA_p4_viability: Viability Assessment in the Tox21 HCT-116 p53 Agonism Beta-lactamase Assay, Phase 4 (AID 2283597);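 note: hits lower the luminescence signal meaning cytotoxicity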
Text: TOX21_p53_BLA_p4 is a cell-based, single-readout assay that uses HCT116, a human intestinal cell line, […] in a 1536-well plate.TOX21_p53_BLA_p4_viability is an assay readout measuring cellular ATP content and detected with CellTiter-Glo Luciferase-coupled ATP quantitation.TOX21_p53_BLA_p4_viability used a type of viability reporter where loss-of-signal activity can be used to understand changes in the cell viability. […]
Inconclusive results are not listed. The source made the active and inactive calls. Rule for the calls: active = hit-call score of the fitted dose curve at least 0.9, where 1 is the maximum; inconclusive = response in the unintended direction; inactive = score below 0.9.
Lab note: assign the record to one of active, inactive

Query :: Write down the call the test reported for this compound. Item: CC(C(O)c1ccccc1)N(C)CCOC(c1ccccc1)c1ccccc1 (stereo not given)
Result :: active

Query :: Repeat with CCCCCCCCCCCCCCCCCC[N+](C)(C)C
Result :: active

Query :: Repeat with CC(C)(C)c1cc(CO)cc(C(C)(C)C)c1O
Result :: inactive

Query :: Repeat with NNc1ccc(C(=O)O)cc1
Result :: inactive

Query :: Repeat with CO[C@@H]1[C@@H](O[C@@H]2O[C@H](C)[C@@H](O[C@H]3C[C@@](C)(O)[C@@H](OC(=O)CC(C)C)[C@H](C)O3)[C@H](N(C)C)[C@H]2O)[C@@H](CC=O)C[C@@H](C)C(=O)/C=C/C2OC2C[C@@H](C)OC(=O)C[C@H]1OC(C)=O (stereo not given in full)
Result :: inactive

Query :: Repeat with O=C(O)c1c(Cl)cccc1Cl
Result :: inactive

Query :: Repeat with C=C(C)C(=O)OCC(C)(C)COC(=O)C(=C)C
Result :: inactive

Query :: Repeat with CCC(=O)O[C@]1(C(=O)SCF)[C@H](C)C[C@H]2[C@@H]3C[C@H](F)C4=CC(=O)C=C[C@]4(C)[C@@]3(F)[C@@H](O)C[C@@]21C
Result :: inactive

Query :: Repeat with Cc1ncc(CO)c(C=O)c1O
Result :: inactive

Query :: Repeat with CC(C)(C)OC(=O)N1C[C@@H](F)C[C@H]1C(=O)O
Result :: inactive

Query :: Repeat with CCCOc1ccccc1-c1nc2n[nH]nc2c(=O)[nH]1
Result :: inactive

Query :: Repeat with Cc1ccc(=O)n(-c2ccccc2)c1
Result :: inactive

Query :: Repeat with O=C(O)CCc1nc2ccccc2[nH]1
Result :: inactive

Query :: Repeat with NC(=O)COCCN1CCN(C(c2ccccc2)c2ccc(Cl)cc2)CC1 (stereo not given)
Result :: inactive

Query :: Repeat with CCCCCCNC(=O)n1cc(F)c(=O)[nH]c1=O
Result :: active

Query :: Repeat with CN[C@H](CC(C)C)C(=O)N[C@H]1C(=O)N[C@@H](CC(N)=O)C(=O)N[C@H]2C(=O)N[C@H]3C(=O)N[C@H](C(=O)N[C@H](C(=O)O)c4cc(O)cc(O)c4-c4cc3ccc4O)[C@H](O)c3ccc(c(Cl)c3)Oc3cc2cc(c3O[C@@H]2O[C@H](CO)[C@@H](O)[C@H](O)[C@H]2O[C@H]2C[C@](C)(N)[C@H](O)[C@H](C)O2)Oc2ccc(cc2Cl)[C@H]1O
Result :: inactive

Query :: Repeat with CC(C)(C)C1(CCc2ccc(Cl)cc2)CO1 (stereo not given)
Result :: inactive

Query :: Repeat with Nc1ccc(S(=O)(=O)Nc2ccnn2-c2ccccc2)cc1
Result :: inactive

Query :: Repeat with CNc1ccccc1
Result :: inactive

Query :: Repeat with Nc1nc2c(ncn2CCC(CO)CO)c(=O)[nH]1
Result :: inactive
